target.or.system: Mus musculus
protocol.notes: Ex-vivo inhibition of po dosed mouse PrCP by FRET analysis in presence of heat inactivated 25% plasma
Assay type: functional, organism-based
measured.parameter: log10 of Ki (log10 of the value in nM)
Scale: log10; quantity: Ki; unit before log: nM

Cc1nc(C2CCN(C(=O)[C@@H]3C[C@@](C)(N(C)C)C[C@H]3c3ccc(F)cc3F)CC2)n(-c2ccc(F)c(Cl)c2)n1 ... 0.04
Cc1cc(C2CCN(C(=O)[C@@H]3C[C@@](C)(N(C)C)C[C@H]3c3ccc(F)cc3F)CC2)n(-c2ccc(F)c(Cl)c2)n1 ... 0.18
Cc1cc(C2CCN(C(=O)[C@@H]3C[C@@](C)(N(C)C)C[C@H]3c3ccc(F)cc3F)CC2)n(-c2cc(Cl)ccc2Cl)n1 ... -0.05
Cc1nc(C2CCN(C(=O)[C@@H]3C[C@@](C)(N(C)C)C[C@H]3c3ccc(F)cc3F)CC2)n(-c2ccc(Cl)c(C)c2)n1 ... 0.80

// fetch log10 of Ki; item: Cc1nc(C2CCN(C(=O)[C@@H]3C[C@@](C)(N)C[C@H]3c3ccc(F)cc3F)CC2)n(-c2ccc(Cl)c(C)c2)n1 ; system: Mus musculus
1.43

// fetch log10 of Ki; item: Cc1cc(C2CCN(C(=O)[C@@H]3C[C@](C)(N)C[C@H]3c3ccc(F)cc3F)CC2)n(-c2ccc(F)c(Cl)c2)n1 ; system: Mus musculus
1.39

// fetch log10 of Ki; item: Cc1nc(C2CCN(C(=O)[C@@H]3C[C@@](C)(N)C[C@H]3c3ccc(F)cc3F)CC2)n(-c2cc(Cl)ccc2Cl)n1 ; system: Mus musculus
0.67
